Exercise: state measured EC50 for each of the substances provided.
# TESTED_SYSTEM: NK1R WT (human TACR1) (Homo sapiens, UniProt P25103)
# Construct: host or cells: COS7 cells, transient calcium-precipitation transfection
# Sequence (P25103 whole entry): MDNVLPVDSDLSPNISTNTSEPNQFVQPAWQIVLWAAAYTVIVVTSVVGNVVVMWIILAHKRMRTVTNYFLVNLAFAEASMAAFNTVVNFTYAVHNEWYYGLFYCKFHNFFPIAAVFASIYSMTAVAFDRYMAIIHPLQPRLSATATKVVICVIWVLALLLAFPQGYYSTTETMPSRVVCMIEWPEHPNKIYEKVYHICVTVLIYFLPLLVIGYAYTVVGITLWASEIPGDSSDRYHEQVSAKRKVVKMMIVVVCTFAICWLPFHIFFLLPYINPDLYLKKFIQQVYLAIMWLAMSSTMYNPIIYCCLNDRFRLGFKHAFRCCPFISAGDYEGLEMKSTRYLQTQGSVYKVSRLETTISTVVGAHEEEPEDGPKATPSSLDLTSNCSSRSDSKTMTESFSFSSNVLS
# TEST_PROTOCOL: BRET-based cAMP assay (Gs activation), NK1R
# Type: cell-based
# CONDITION_CONTEXT: Fig. 2C, analogs with free N termini; given as log(EC50); transfected COS7 cells; three independent experiments in duplicates
No end group written: not given here.
Answers are plain numbers, in µM.

[
  {
    "SUBSTANCE": "QFFGLM-NH2 [QFFGLM-NH2]",
    "REPORTED_METRIC": "EC50",
    "OBSERVED_RESULT": 0.0158
  }
]

Next substance, please.
What is its EC50 for NK1R WT (human TACR1) (Homo sapiens, UniProt P25103)? Entry: QQFFGLM-NH2 [QQFFGLM-NH2]
0.00794

---

# TESTED_SYSTEM: NK2R WT (human TACR2) (Homo sapiens, UniProt P21452)
# Construct: host or cells: COS7 cells, transient calcium-precipitation transfection
# Sequence (P21452 whole entry): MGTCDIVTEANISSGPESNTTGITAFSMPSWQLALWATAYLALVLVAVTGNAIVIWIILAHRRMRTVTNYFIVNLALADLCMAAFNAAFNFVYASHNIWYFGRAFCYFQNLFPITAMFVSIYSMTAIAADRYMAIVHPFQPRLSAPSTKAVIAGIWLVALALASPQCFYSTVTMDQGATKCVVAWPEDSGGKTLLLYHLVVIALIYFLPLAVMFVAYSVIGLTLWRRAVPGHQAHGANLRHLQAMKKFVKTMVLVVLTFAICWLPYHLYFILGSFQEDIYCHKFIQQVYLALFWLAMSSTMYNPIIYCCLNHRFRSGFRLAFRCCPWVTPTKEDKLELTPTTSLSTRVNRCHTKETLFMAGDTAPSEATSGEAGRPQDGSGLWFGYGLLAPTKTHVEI
# TEST_PROTOCOL: BRET-based cAMP assay (Gs activation), NK2R
# Type: cell-based
REPORTED_METRIC: pEC50
One number for each entry, as −log10 of the molar value.

Value wanted: pEC50 (NK2R WT (human TACR2) (Homo sapiens, UniProt P21452)) of entry CSCC[C@H](NC(=O)[C@H](CC(C)C)NC(=O)CNC(=O)[C@@H](NC(=O)[C@H](Cc1ccccc1)NC(=O)[C@H](CO)NC(=O)[C@@H](N)CC(=O)O)C(C)C)C(N)=O
8.00

---

# TESTED_SYSTEM: NK1R WT (human TACR1) (Homo sapiens, UniProt P25103)
# Construct: host or cells: COS7 cells, transient calcium-precipitation transfection
# TEST_PROTOCOL: IP3 accumulation assay (Gq activation), NK1R
# Format: cell-based
# CONDITION_CONTEXT: Fig. 5A, Gq activation; given as log(EC50); transfected COS7 cells; three independent experiments in duplicates
No end group written: not given here.
REPORTED_METRIC: pEC50
One number for each entry, as −log10 of the molar value.

For NK1R WT (human TACR1) (Homo sapiens, UniProt P25103), provide pEC50 of QFFGLM-NH2 [QFFGLM-NH2] please.
7.70

---

# TESTED_SYSTEM: NK1R WT (human TACR1) (Homo sapiens)
# Construct: host or cells: COS7 cells, transient calcium-precipitation transfection
# TEST_PROTOCOL: IP3 accumulation assay (Gq activation), NK1R
# Assay type: cell-based
# CONDITION_CONTEXT: Fig. 2D, analogs with free N termini; given as log(EC50); transfected COS7 cells; three independent experiments in duplicates
No end group written: not given here.
REPORTED_METRIC: pEC50
Answers are plain numbers, as −log10 of the molar value.

[
  {
    "SUBSTANCE": "QQFFGLM-NH2 [QQFFGLM-NH2]",
    "TESTED_SYSTEM": "NK1R WT (human TACR1) (Homo sapiens)",
    "pEC50": 8.30
  }
]

Sample QFFGLM-NH2 [QFFGLM-NH2] — what was its pEC50?
7.90

---

# TESTED_SYSTEM: NK1R WT (human TACR1) (Homo sapiens, UniProt P25103)
# Construct: host or cells: COS7 cells, transient calcium-precipitation transfection
# TEST_PROTOCOL: BRET-based cAMP assay (Gs activation), NK1R
# Type: cell-based
# CONDITION_CONTEXT: Fig. 2A, acetylated analogs; given as log(EC50); transfected COS7 cells; three independent experiments in duplicates
REPORTED_METRIC: EC50

[
  {
    "SUBSTANCE": "Ac-QQFFGLM-NH2 [Ac-QQFFGLM-NH2]",
    "TESTED_SYSTEM": "NK1R WT (human TACR1) (Homo sapiens, UniProt P25103)",
    "OBSERVED_RESULT": "1.26 nM"
  }
]

Continue with the substance presented below.
Notebook: pull reported EC50 for NK1R WT (human TACR1) (Homo sapiens, UniProt P25103), entry Ac-QFFGLM-NH2 [Ac-QFFGLM-NH2]
3.98 nM

---

# TESTED_SYSTEM: NK1R WT (human TACR1) (Homo sapiens, UniProt P25103)
# Construct: host or cells: COS7 cells, transient calcium-precipitation transfection
# TEST_PROTOCOL: IP3 accumulation assay (Gq activation), NK1R
# Assay type: cell-based
# CONDITION_CONTEXT: read-out: log(EC50), IP3 - NK1R WT (converted)
No end group written: not given here.
Please go through the items and note down their EC50.
Give bare numbers, in nM.

Give EC50 for each listed item.
1. Ac-SFVGLM-NH2 [Ac-SFVGLM-NH2]
2. SFVGLM-NH2 [SFVGLM-NH2]
3. Ac-QFFGLM-NH2 [Ac-QFFGLM-NH2]
4. Ac-QQFFGLM-NH2 [Ac-QQFFGLM-NH2]

1: 7.94; 2: 50.1; 3: 1.58; 4: 3.16
